measurement.notes: Tolerability in Sprague-Dawley rats: kidney function, urine protein/creatinine (Example 35)
experimental.conditions: Sprague Dawley rats; Before antisense oligonucleotide treatment
quantity.measured: Urine protein/creatinine ratio
Number, no unit, nothing else.

# substance, Urine protein/creatinine ratio
rows = [
    ("416858 (antisense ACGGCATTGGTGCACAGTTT; 5-10-5 gapmer, further chemistry not given here) [compound 416858]", 0.9),
]

Kindly review the next substance as well.
Field request: Urine protein/creatinine ratio | item: 416864 (antisense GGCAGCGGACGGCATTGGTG; 5-10-5 gapmer, further chemistry not given here) [compound 416864]
1.2

---

% inhibition by entry:
Test system: human Factor 11 mRNA
measurement.notes: Antisense inhibition of human Factor 11 in HepG2 cells by microwalk gapmers, lipofectin, 75 nM (Example 3)
Assay type: cell-based
experimental.conditions: HepG2 cells, lipofectin, gapmers targeted to nucleobases 1275 to 1318 of SEQ ID NO: 1
Strand notation (5' to 3'): a small letter for the sugar, then the base; units joined by * are phosphorothioate-linked, units joined directly phosphodiester-linked; [ ] holds rarer units or linkages, { } end groups; capitals alone tell only the bases. e = 2'-O-(2-methoxyethyl) (MOE); [5mC] = 5-methylcytosine; d = 2'-deoxy (DNA)
Respond numerically; units are % and should not be typed.

Solved cases (2 shown):
# substance, numeric.readout
rows = [
    ("416865 (antisense eT*eG*eG*e[5mC]*eA*dG*d[5mC]*dG*dG*dA*d[5mC]*dG*dG*d[5mC]*dA*eT*eT*eG*eG*eT) [compound 416865]", 88),
    ("416864 (antisense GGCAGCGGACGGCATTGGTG; 5-10-5 gapmer, further chemistry not given here) [compound 416864]", 93),
]

Field request: % inhibition | item: 416931 (antisense eG*eG*e[5mC]*dA*dT*dT*dG*dG*dT*dG*d[5mC]*dA*d[5mC]*dA*dG*dT*dT*eT*e[5mC]*eT) [compound 416931]
96
